Test: Oral bioavailability in Beagle dog at 10 mg/kg
Format: ADME, organism-based, Canis lupus familiaris
Details: in vivo
Property measured: bioavailability (%)
Answers are plain numbers, in %.

# input compound: C=CC(=O)N1CCN(c2nc(=O)n(-c3c(C)ccnc3C(C)C)c3nc(-c4c(O)cccc4F)c(F)cc23)[C@@H](C)C1 ; wanted: its bioavailability 0.34

---

Task for the reader: assign each of the following molecules its reported Ratio.
Test: Ratio of unbound plasma concentration in BALB/c mouse at 10 mg/kg to IC50 for inhibition of KRAS in human MIAPaca2 cells assessed as decrease in EGF-stimulated ERK1/2 phosphorylation preincubated for 2 hrs followed by EGF stimulation
Type: organism-based
Conditions: in vivo
Answers are plain numbers.

{"Structure": "C=CC(=O)N1CCN(c2nc(=O)n(-c3c(C(C)C)ncnc3C(C)C)c3nc(-c4c(O)cccc4F)c(Cl)cc23)[C@@H](C)C1", "Ratio": 0.8}
{"Structure": "C=CC(=O)N1CCN(c2nc(=O)n(-c3c(CC)cccc3CC)c3nc(-c4c(O)cccc4F)c(Cl)cc23)[C@@H](C)C1", "Ratio": 0.8}
{"Structure": "C=CC(=O)N1CCN(c2nc(=O)n(-c3c(C)cccc3C(C)C)c3nc(-c4c(O)cccc4F)c(Cl)cc23)[C@@H](C)C1", "Ratio": 4.5}
{"Structure": "C=CC(=O)N1CCN(c2nc(=O)n(-c3c(C4CC4)ncnc3C3CC3)c3nc(-c4c(O)cccc4F)c(Cl)cc23)[C@@H](C)C1", "Ratio": 0.6}

# input molecule: C=CC(=O)N1CCN(c2nc(=O)n(-c3scnc3C(C)C)c3nc(-c4c(O)cccc4F)c(Cl)cc23)[C@@H](C)C1 ; wanted: its Ratio 1.5
